The reported measurements were obtained from the METLIN SMRT retention time set (Domingo-Almenara et al. 2019).

Quick list: RP-LC retention time per entry.
experiment: gradient 5% acetonitrile 3 min, to 50% in 2 min, to 85% in 15 min, held 3 min, 100 µL/min; conditions: column: Zorbax Extend-C18 2.1 x 50 mm; eluents: water / acetonitrile, 0.1% formic acid
// note: answer is a bare numeric in s

The following molecules have reported results that may help.
{"smi": "CCCC(=O)Nc1nc(-c2ccccc2)c(-c2ccccc2)s1", "unitAnnotation": "s", "RP-LC retention time": 1160}
{"smi": "Cc1ccc2c(c1)N(Cc1nc(-c3ccc(C)c(C)c3)no1)C(=O)CO2", "unitAnnotation": "s", "RP-LC retention time": 1160}
{"smi": "COc1ccc(-n2ncc3c(=O)n(Cc4nc(-c5cccc(C)c5)no4)cnc32)cc1", "unitAnnotation": "s", "RP-LC retention time": 1050}

Sample CCn1cc(C(=O)NCc2ccccc2F)c(S(=O)(=O)N2CCSCC2)n1 ; RP-LC retention time observed: 901

Sample Cc1cc(N2CCN(C(=O)c3ccccc3)CC2)nc2nncn12 ; RP-LC retention time observed: 558

Sample Cc1ccsc1C(=O)N1CCN(c2cc(-c3ccc(Cl)cc3)[nH]n2)CC1 ; RP-LC retention time observed: 749

Sample CN(NC(=O)CC(=O)NN(C)C(=S)c1ccccc1)C(=S)c1ccccc1 ; RP-LC retention time observed: 862

Sample Cc1ccc(C)c(N2CCN(c3ccnc(SCC(=O)Nc4c(C)cccc4Cl)n3)CC2)c1 ; RP-LC retention time observed: 942
